Assayed System: human mu opioid receptor (Homo sapiens)
Construct: purchased Perkin Elmer RBHOMM400UA; host or cells: Chinese Hamster Ovary cells (recombinant expression)
Sequence (P35372 whole entry): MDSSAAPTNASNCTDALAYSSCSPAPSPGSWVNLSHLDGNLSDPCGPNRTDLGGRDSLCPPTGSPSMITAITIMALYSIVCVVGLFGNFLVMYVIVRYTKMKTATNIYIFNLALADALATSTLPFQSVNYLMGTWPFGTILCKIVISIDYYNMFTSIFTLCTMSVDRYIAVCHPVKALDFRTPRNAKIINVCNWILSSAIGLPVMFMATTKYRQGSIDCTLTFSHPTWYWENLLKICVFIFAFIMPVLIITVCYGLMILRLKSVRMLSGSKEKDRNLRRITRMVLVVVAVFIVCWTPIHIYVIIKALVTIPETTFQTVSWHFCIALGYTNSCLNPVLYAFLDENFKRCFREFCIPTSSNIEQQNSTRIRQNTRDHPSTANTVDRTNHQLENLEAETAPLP
Assay Text: Human Mu Opioid Receptor Binding Assay (CHO membranes, 3H-Damgo)
Measurement Parameters: read-out: hKi μ
Assign Ki to each entry below.
Numbers only, in nM.

{"columns": ["Sample Smiles", "Assayed System", "Assay Value"],
 "data": [
  ["Cc1cc(O)cc(C)c1C[C@H](N)C(=O)N(C(C)C)[C@@H](Cc1ccccc1)c1nc(-c2ccccc2)c[nH]1", "human mu opioid receptor (Homo sapiens)", 8.6],
  ["Cc1cc(C(N)=O)cc(C)c1C[C@H](N)C(=O)N(CCc1ccccc1)[C@@H](C)c1nc(-c2ccccc2)c[nH]1", "human mu opioid receptor (Homo sapiens)", 8.2],
  ["Cc1cc(O)cc(C)c1C[C@H](N)C(=O)N(Cc1nc(-c2ccc(S(C)(=O)=O)cc2)c(C)[nH]1)C(C)C", "human mu opioid receptor (Homo sapiens)", 2.4]
]}

# return Ki for each item in the list
1. Cc1cc(O)cc(C)c1C[C@H](N)C(=O)N(Cc1nc(-c2cc(N)cc(C(=O)O)c2)c(C)[nH]1)C(C)C
2. Cc1cc(O)cc(C)c1C[C@H](N)C(=O)N(CC1CCNCC1)[C@@H](C)c1nc(-c2ccccc2)c[nH]1

Ans.
22
16

====

Assayed System: delta opioid receptor (Rattus norvegicus, UniProt P33533)
Construct: from tissue; host or cells: forebrain of male Wistar rats
Sequence (P33533 whole entry): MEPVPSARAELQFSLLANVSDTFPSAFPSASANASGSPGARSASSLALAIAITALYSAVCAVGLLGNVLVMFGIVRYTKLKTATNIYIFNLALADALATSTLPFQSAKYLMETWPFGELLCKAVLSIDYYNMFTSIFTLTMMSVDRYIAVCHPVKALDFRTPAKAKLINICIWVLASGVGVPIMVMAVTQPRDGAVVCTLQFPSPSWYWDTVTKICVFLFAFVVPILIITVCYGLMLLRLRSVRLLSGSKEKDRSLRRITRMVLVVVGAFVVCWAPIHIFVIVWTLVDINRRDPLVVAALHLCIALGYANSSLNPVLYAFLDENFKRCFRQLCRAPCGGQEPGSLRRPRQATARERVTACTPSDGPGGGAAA
Assay Text: Rat Brain Delta Opioid Receptor Binding Assay ([3H]DPDPE)
Measurement Parameters: rat forebrain membranes, margin of error 10-20%, read-out: r Ki δ
Assign Ki to each entry below.

# return Ki for each item in the list
1. CC(C)N(C(=O)[C@@H](N)Cc1ccc(O)cc1)[C@H](C)c1nc(-c2ccccc2)c[nH]1 [Cpd 222]
2. COc1ccc(CN(C(=O)[C@@H](N)Cc2ccc(O)cc2)[C@@H](C)c2nc(-c3ccccc3)c[nH]2)cc1C(=O)O [Cpd 261]
3. CCN(C(=O)[C@@H](N)Cc1c(C)cc(C(N)=O)cc1C)[C@@H](C)c1nc(-c2ccccc2)c[nH]1 [Cpd 197]
4. Cc1cc(O)cc(C)c1C[C@H](N)C(=O)N[C@H](C)c1nc(-c2ccccc2)c[nH]1 [Cpd 208]
5. CCN(C(=O)[C@@H](N)Cc1ccc(O)cc1)[C@H](C)c1nc(-c2ccccc2)c[nH]1 [Cpd 214]
6. COc1cc(CN(C(=O)[C@@H](N)Cc2c(C)cc(C(N)=O)cc2C)[C@@H](C)c2nc(-c3ccccc3)c[nH]2)ccc1C(=O)O [Cpd 14]
7. C[C@@H](c1nc(-c2ccccc2)c[nH]1)N(Cc1cccc(-c2nnn[nH]2)c1)C(=O)[C@@H](N)Cc1ccc(C(N)=O)cc1 [Cpd 267]

Ans.
394 nM
8.01 nM
4.27 nM
33 nM
308 nM
0.36 nM
0.46 nM

====

Assayed System: mu opioid receptor (Rattus norvegicus, UniProt P33535)
Construct: from tissue; host or cells: forebrain of male Wistar rats
Sequence (P33535 whole entry): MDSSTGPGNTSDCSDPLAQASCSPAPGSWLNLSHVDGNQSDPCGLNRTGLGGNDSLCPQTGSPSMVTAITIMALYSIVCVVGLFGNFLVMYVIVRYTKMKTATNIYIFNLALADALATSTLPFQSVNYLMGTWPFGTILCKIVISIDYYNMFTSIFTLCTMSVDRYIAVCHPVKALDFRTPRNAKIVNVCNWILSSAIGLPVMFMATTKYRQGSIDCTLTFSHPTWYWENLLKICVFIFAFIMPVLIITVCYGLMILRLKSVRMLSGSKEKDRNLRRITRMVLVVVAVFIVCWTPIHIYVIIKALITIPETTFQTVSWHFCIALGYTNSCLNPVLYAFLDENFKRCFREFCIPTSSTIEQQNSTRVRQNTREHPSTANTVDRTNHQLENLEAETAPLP
Assay Text: Rat Brain Mu Opioid Receptor Binding Assay (and Version 2a, [3H]DAMGO)
Measurement Parameters: rat forebrain membranes, margin of error 10-20%, read-out: r Ki μ
Measurement Label: pKi
Give bare numbers, as −log10 of the molar value.

Worked cases, answers included:
{"columns": ["Sample Smiles", "pKi"],
 "data": [
  ["COC(=O)c1cc(CN(C(=O)[C@@H](N)Cc2c(C)cc(C(N)=O)cc2C)[C@@H](C)c2nc(-c3ccccc3)c[nH]2)ccc1OC", 9.66],
  ["Cc1cc(O)cc(C)c1C[C@H](N)C(=O)N(Cc1ccnc2ccccc12)[C@@H](C)c1nc(-c2ccccc2)c[nH]1", 9.82],
  ["COc1cc(CN(C(=O)[C@@H](N)Cc2c(C)cc(C(N)=O)cc2C)[C@@H](C)c2nc(-c3ccccc3)c[nH]2)c(C(=O)O)cc1OC", 8.30]
]}

# return pKi for each item in the list
1. COc1ccc(CN(C(=O)[C@@H](N)Cc2c(C)cc(O)cc2C)[C@@H](C)c2nc(-c3ccccc3)c[nH]2)cc1-c1nnn[nH]1
2. Cc1cc(O)cc(C)c1C[C@H](N)C(=O)N[C@@H](COCc1ccccc1)c1nc(-c2ccccc2)c[nH]1
3. COc1ccc(CN(C(=O)[C@@H](N)Cc2c(C)cc(C(N)=O)cc2C)[C@@H](C)c2nc(-c3ccccc3)c[nH]2)cc1C(=O)NC1CC1
4. Cc1cc(O)cc(C)c1C[C@H](N)C(=O)N(Cc1nc(-c2cc(C(F)(F)F)cc(C(F)(F)F)c2)c(C)[nH]1)C(C)C
5. CC(C)[C@H](NC(=O)[C@@H](N)Cc1ccc(O)cc1)c1nc(-c2ccccc2)c[nH]1
6. COc1ccc(CN(C(=O)[C@@H](N)Cc2c(C)cc(C(N)=O)cc2C)[C@@H](C)c2nc(-c3ccccc3)c[nH]2)cc1C(=O)N1CCOCC1

Ans.
9.40
8.44
10.05
9.42
6.51
9.31

# return pKi for each item in the list
1. Cc1cc(C(N)=O)cc(C)c1C[C@H](N)C(=O)N(Cc1cccc(-c2nnn[nH]2)c1)[C@@H](C)c1nc(-c2ccccc2)c[nH]1
2. COc1ccc(CN(C(=O)[C@@H](N)Cc2c(C)cc(C(N)=O)cc2C)[C@@H](C)c2nc(-c3ccccc3)c[nH]2)cc1C(=O)NCCO
3. Cc1cc(O)cc(C)c1C[C@H](N)C(=O)N(Cc1ccc(OC(F)(F)F)cc1)[C@@H](C)c1nc(-c2ccccc2)c[nH]1
4. COC(=O)c1ccc(CN(C(=O)[C@@H](N)Cc2c(C)cc(C(N)=O)cc2C)[C@@H](C)c2nc(-c3ccccc3)c[nH]2)o1

Ans.
1: 9.23; 2: 9.36; 3: 9.96; 4: 8.91

====

Test system: novel environment-stressed mice
Assay Text: In Vivo Assay-Stress-Induced Fecal Output (Fecal Output for 1 hr)
Set-up: species or system mouse
Measurement Parameters: 30 mg/kg oral, novel environment-stressed mice, 1 hr
Our labelling divides records by Fecal Output (# pellets) cpd into ranges: low range: < 4 pellets; mid range: ≥ 4 pellets and < 9 pellets; high range: ≥ 9 pellets

{"columns": ["Molecule", "Class Name"],
 "data": [
  ["Cc1cc(C(N)=O)cc(C)c1C[C@H](N)C(=O)N(C(C)C)[C@@H](C)c1nc(-c2ccccc2)c[nH]1 [Cpd 143]", "mid range"]
]}

Qu. Pick a category. Item: Cc1cc(C(N)=O)cc(C)c1C[C@H](N)C(=O)N(C)[C@@H](C)c1nc(-c2ccccc2)c[nH]1 [Cpd 196]
Ans. mid range

Qu. Pick a category. Item: Cc1cc(O)cc(C)c1C[C@H](N)C(=O)N(Cc1ccoc1)[C@@H](C)c1nc(-c2ccccc2)c[nH]1 [Cpd 55]
Ans. mid range

Qu. Pick a category. Item: COC(=O)c1ccc(CN(C(=O)[C@@H](N)Cc2c(C)cc(O)cc2C)[C@@H](C)c2nc(-c3ccccc3)c[nH]2)cc1 [Cpd 89]
Ans. mid range

Qu. Pick a category. Item: Cc1cc(C(N)=O)cc(C)c1C[C@H](N)C(=O)N(C(C)c1ccccc1)[C@@H](C)c1nc(-c2ccccc2)c[nH]1 (single isomer, unassigned) [Cpd 112]
Ans. mid range

Qu. Pick a category. Item: Cc1cc(O)cc(C)c1C[C@H](N)C(=O)N(C)[C@@H](C)c1nc(Cc2ccccc2)c[nH]1 [Cpd 205]
Ans. low range

Qu. Pick a category. Item: Cc1cc(C(N)=O)cc(C)c1C[C@H](N)C(=O)N(C)[C@H](C)c1nc(-c2ccccc2)c[nH]1 [Cpd 144]
Ans. high range

Qu. Pick a category. Item: COc1ccc(CN(C(=O)[C@@H](N)Cc2c(C)cc(C(N)=O)cc2C)[C@@H](C)c2nc(-c3ccccc3)c[nH]2)cc1C(=O)O [Cpd 18]
Ans. low range

Qu. Pick a category. Item: Cc1cc(C(N)=O)cc(C)c1C[C@H](N)C(=O)N(Cc1ccccc1)Cc1nc(-c2ccccc2)c[nH]1 [Cpd 107]
Ans. high range

Qu. Pick a category. Item: Cc1cc(C(N)=O)cc(C)c1C[C@H](N)C(=O)N(Cc1ccc(C(=O)O)cc1)[C@@H](C)c1nc(-c2ccccc2)c[nH]1 [Cpd 50]
Ans. low range

Qu. Pick a category. Item: CNc1ccc(CN(C(=O)C(N)Cc2c(C)cc(O)cc2C)C(C)c2nc(-c3ccccc3)c[nH]2)cc1 (centres unmarked) [Cpd 78]
Ans. low range

Qu. Pick a category. Item: Cc1cc(C(N)=O)cc(C)c1C[C@H](N)C(=O)N(Cc1nc(-c2ccccc2)c[nH]1)[C@@H](C)c1ccccc1 [Cpd 95]
Ans. mid range

Qu. Pick a category. Item: Cc1cc(O)cc(C)c1C[C@H](N)C(=O)N(Cc1ccc(Cl)c(Cl)c1)Cc1nc(-c2ccccc2)c[nH]1 [Cpd 87]
Ans. high range

Qu. Pick a category. Item: COc1ccc(CN(C(=O)[C@@H](N)Cc2c(C)cc(O)cc2C)[C@@H](C)c2nc(-c3ccccc3)c[nH]2)cc1OC [Cpd 102]
Ans. low range

Qu. Pick a category. Item: Cc1cc(O)cc(C)c1C[C@H](N)C(=O)N(Cc1nc(-c2cccc(C(=O)O)c2)c(C)[nH]1)C(C)C [Cpd 133]
Ans. high range

Qu. Pick a category. Item: Cc1cc(O)cc(C)c1C[C@H](N)C(=O)N(C(C)C)[C@@H](CO)c1nc(-c2ccccc2)c[nH]1 [Cpd 118]
Ans. mid range

Qu. Pick a category. Item: Cc1cc(C(N)=O)cc(C)c1C[C@H](N)C(=O)N(C(C)c1ccccc1)[C@@H](C)c1nc(-c2ccccc2)c[nH]1 (single isomer, unassigned) [Cpd 111]
Ans. mid range

Qu. Pick a category. Item: Cc1cc(O)cc(C)c1C[C@H](N)C(=O)N(Cc1ccc(Cl)cc1Cl)[C@@H](C)c1nc(-c2ccccc2)c[nH]1 [Cpd 103]
Ans. high range
